Target: T1, McrA (rMcrA-S, C-terminal StrepII) (Escherichia coli, UniProt P24200 P24200:1-277)
T1 sequence: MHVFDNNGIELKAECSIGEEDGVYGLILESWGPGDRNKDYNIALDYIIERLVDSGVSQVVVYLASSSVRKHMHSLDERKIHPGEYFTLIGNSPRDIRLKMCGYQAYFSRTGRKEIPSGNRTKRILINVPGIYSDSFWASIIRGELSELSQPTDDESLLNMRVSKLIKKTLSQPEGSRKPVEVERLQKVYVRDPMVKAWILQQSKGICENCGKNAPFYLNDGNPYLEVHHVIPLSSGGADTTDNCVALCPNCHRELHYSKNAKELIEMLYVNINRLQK
Test: EMSA; NEBuffer 3, RT
Conditions: tags: C-terminal StrepII SAWSHPQFEK
assay-endpoint: binding result

>>> recorded_result("Am5CGA cassette (dsDNA, 5mC at CpG (M.SssI), top 9, bottom 15) DNA 1: CCCTCTGACGAAGGAGGCTCCTGC DNA 2: GCAGGAGCCTCCTTCGTCAGAGGG")
"binds"
>>> recorded_result("m5CGC cassette (dsDNA, 5mC at CpG (M.SssI), top 9, bottom 15) DNA 1: CCCTCTGACGCAGGAGGCTCCTGC DNA 2: GCAGGAGCCTCCTGCGTCAGAGGG")
"no binding"
>>> recorded_result("Gm5CGA cassette (dsDNA, 5mC at CpG (M.SssI), top 9, bottom 15) DNA 1: CCCTCTGGCGAAGGAGGCTCCTGC DNA 2: GCAGGAGCCTCCTTCGCCAGAGGG")
"binds"
>>> recorded_result("m5CGT cassette (dsDNA, 5mC at CpG (M.SssI), top 9, bottom 15) DNA 1: CCCTCTGACGTAGGAGGCTCCTGC DNA 2: GCAGGAGCCTCCTACGTCAGAGGG")
"no binding"
>>> recorded_result("Am5CGG cassette (dsDNA, 5mC at CpG (M.SssI), top 9, bottom 15) DNA 1: CCCTCTGACGGAGGAGGCTCCTGC DNA 2: GCAGGAGCCTCCTCCGTCAGAGGG")
"binds"
>>> recorded_result("Gm5CGG cassette (dsDNA, 5mC at CpG (M.SssI), top 9, bottom 15) DNA 1: CCCTCTGGCGGAGGAGGCTCCTGC DNA 2: GCAGGAGCCTCCTCCGCCAGAGGG")
"binds"
